Hey, just so you know, these numbers are from the supplement of paper PMC8728848.

- target.entity: Gal(a1-3)Gal(b1-3)GlcNAc
- method.summary: glycan array binding signal (z-score within array); higher = stronger binding
- details: glycan notation: IUPAC condensed, linker removed
Only a selection was taken, and the strongest signals are over-represented in it overall.
measured.endpoint: glycan array binding signal (z-score)
Number only, please.

binder="CPA (Cicer arietinum) (protein) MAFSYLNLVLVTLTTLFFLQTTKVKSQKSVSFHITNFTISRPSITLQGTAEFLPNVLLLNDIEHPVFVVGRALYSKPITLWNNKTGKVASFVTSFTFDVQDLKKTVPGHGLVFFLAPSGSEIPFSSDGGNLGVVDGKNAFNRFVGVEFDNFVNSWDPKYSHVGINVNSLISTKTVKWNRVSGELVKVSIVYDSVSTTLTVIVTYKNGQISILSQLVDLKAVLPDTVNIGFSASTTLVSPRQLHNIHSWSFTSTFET" reported_measurement=0.134

input: Identify glycan array binding signal (z-score) associated with the binder AT5G24760(45) (Arabidopsis thaliana), Q8LEB2 (protein) MSASSSSFEQPQVITCNAAVAWRAGEPLVMEEVEVSPPQPLEIRIKVVCTSLCRSDLSAWESQSLLPRIFGHEAAGIVESIGEGVTEFEKGDHVLAVFTGECGSCRHCISGKSNMCQVLGMERKGLMHSDQKTRFSIKGKPVYHYCAVSSFSEYTVVHSGCAVKVDPLAPLHKICLLSCGVAAGLGAAWNVADVQKGSSVVIFGLGTVGLSVAQGAKLRGAAQILGVDINPAKAEQAKTFGVTDFINSNDLSEPIPQVIKRMTGGGADFSFECVGDTGIATTALQSCSDGWGMTVTLGVPKAKPEVSAHYGLFLSGKSLKGTLFGGWKPKSDLPSLIDKYMNKEIMIDEFITHNLSFDEINKAFVLMREGKCLRCVLHMPK
output: 7.36

input: Identify glycan array binding signal (z-score) associated with the binder Gal 10 (Homo sapiens), Q05315 (protein) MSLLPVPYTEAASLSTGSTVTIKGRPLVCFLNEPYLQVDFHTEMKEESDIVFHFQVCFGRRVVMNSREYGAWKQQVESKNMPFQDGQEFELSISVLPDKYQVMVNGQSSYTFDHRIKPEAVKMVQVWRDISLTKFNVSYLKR
output: -0.317

input: Identify glycan array binding signal (z-score) associated with the binder EULS2 M1 (Oryza sativa) (protein) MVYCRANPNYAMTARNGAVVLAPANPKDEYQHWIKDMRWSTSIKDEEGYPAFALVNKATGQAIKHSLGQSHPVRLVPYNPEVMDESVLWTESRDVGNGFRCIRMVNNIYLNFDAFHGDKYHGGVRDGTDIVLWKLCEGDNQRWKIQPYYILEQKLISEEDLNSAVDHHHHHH
output: 3.45

input: Identify glycan array binding signal (z-score) associated with the binder Arath Fbox LD (Arabidopsis thaliana) (protein) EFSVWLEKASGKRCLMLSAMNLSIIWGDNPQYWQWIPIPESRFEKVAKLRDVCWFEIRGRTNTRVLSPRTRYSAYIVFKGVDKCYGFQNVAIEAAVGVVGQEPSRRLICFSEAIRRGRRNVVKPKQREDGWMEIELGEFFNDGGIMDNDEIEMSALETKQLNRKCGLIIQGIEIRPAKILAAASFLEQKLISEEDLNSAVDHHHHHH
output: 9.37
